# measurement target: UniProt:P21554
# measurement description: Displacement of [3H]CP-55940 from human recombinant CB1 receptor expressed in HEK293 cells at 10 uM after 90 mins
# Assay type: cell-based
Output TRUE for Activity not less than 40%; output FALSE otherwise.

• CCN(CC)CCOc1cccc(C(=O)c2c(-c3ccc(OCCCCCCCN(C)Cc4ccccc4)cc3)oc3ccccc23)c1 = TRUE
• CCN(CC)Cc1cccc(C(=O)c2c(-c3ccc(OCCCCCCCN(C)Cc4ccccc4)cc3)oc3ccccc23)c1 = FALSE
• CCN(CC)CCOc1ccc(C(=O)c2c(-c3ccc(OCCCCCCCN(C)Cc4ccccc4)cc3)oc3ccccc23)cc1 = FALSE
• CN(CCCCCCCOc1ccc(-c2oc3ccccc3c2C(=O)c2cccc3ccccc23)cc1)Cc1ccccc1 = FALSE
• CN(CCCCCCCOc1ccc(-c2oc3ccccc3c2C(=O)c2c3ccccc3cc3ccccc23)cc1)Cc1ccccc1 = FALSE
• CN(CCCCCCCOc1ccc(-c2oc3ccccc3c2C(=O)c2ccccc2)cc1)Cc1ccccc1 = FALSE
• CN(CCCCCCCOc1ccc(-c2oc3ccccc3c2C(=O)c2ccc(OCCN3CCOCC3)cc2)cc1)Cc1ccccc1 = TRUE
• CN(CCCCCCCOc1ccc(-c2cc3ccccc3o2)cc1)Cc1ccccc1 = TRUE
• CCN(CC)Cc1ccc(C(=O)c2c(-c3ccc(OCCCCCCCN(C)Cc4ccccc4)cc3)oc3ccccc23)cc1 = TRUE
• CN(CCCCCCCOc1ccc(-c2oc3ccccc3c2C(=O)c2ccc3ccccc3c2)cc1)Cc1ccccc1 = FALSE

* * *

# measurement target: Cannabinoid receptor 1 (Homo sapiens)
# Sequence (P21554 whole entry): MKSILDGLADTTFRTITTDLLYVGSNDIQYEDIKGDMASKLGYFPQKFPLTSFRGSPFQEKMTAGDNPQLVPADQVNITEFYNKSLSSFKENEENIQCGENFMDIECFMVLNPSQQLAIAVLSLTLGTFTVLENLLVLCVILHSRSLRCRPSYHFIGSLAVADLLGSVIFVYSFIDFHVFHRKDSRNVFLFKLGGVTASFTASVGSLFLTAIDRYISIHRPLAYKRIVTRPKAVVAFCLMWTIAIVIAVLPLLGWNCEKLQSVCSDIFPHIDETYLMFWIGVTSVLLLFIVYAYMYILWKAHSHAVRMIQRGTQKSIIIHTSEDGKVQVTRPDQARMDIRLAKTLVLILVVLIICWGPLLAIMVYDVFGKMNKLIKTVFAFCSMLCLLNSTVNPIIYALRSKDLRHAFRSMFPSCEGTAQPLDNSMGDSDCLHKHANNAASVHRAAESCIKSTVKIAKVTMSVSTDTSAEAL
# measurement description: Displacement of [3H]CP-55940 from human recombinant CB1 receptor expressed in HEK293 cells after 90 mins
# Type: cell-based
measured endpoint: Ki (µM)

- CN(CCCCCCCOc1ccc(-c2cc3ccccc3o2)cc1)Cc1ccccc1: 2.8
- CN(CCCCCCCOc1ccc(-c2oc3ccccc3c2C(=O)c2ccc(-c3ccccc3)cc2)cc1)Cc1ccccc1: 3.12

* * *

# measurement target: Acetylcholinesterase (Homo sapiens)
# Sequence (P22303 whole entry): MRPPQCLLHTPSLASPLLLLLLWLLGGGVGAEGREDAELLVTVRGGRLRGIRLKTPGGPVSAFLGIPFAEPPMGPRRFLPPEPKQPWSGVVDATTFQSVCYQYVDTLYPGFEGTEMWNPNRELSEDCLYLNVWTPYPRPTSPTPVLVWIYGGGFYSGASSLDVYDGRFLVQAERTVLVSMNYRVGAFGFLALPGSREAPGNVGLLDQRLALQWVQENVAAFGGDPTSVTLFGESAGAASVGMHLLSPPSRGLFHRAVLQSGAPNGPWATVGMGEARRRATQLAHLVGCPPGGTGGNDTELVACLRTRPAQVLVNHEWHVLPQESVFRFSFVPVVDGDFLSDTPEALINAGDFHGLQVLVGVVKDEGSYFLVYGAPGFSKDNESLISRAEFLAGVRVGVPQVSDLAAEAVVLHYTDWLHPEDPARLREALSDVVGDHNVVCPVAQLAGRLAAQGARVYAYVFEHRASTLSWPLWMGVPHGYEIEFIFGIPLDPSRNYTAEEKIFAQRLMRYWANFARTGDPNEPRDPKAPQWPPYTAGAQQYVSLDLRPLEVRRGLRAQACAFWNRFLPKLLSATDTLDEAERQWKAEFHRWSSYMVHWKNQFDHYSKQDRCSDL
# measurement description: Inhibition of human recombinant AChE using acetylthiocholine iodide as substrate preincubated for 20 mins prior to substrate addition by Ellman's method
measured endpoint: IC50

* CN(CCCCCCCOc1ccc(-c2oc3ccccc3c2C(=O)c2ccc(-c3ccccc3)cc2)cc1)Cc1ccccc1 | Not Active
* COc1cccc(C(=O)c2c(-c3cccc(OCCCCCCCN(C)Cc4ccccc4)c3)oc3ccccc23)c1OC | Not Active
* CN(CCCCCCCCOc1ccc(-c2cc3ccccc3o2)cc1)Cc1ccccc1 | Not Active
* CN(CCCCCCCCCOc1ccc(-c2cc3ccccc3o2)cc1)Cc1ccccc1 | Not Active
* COc1cccc(C(=O)c2c(-c3cccc(OCCCCCCCN(C)Cc4ccccc4)c3)oc3ccccc23)c1 | Not Active
* CN(CCCCCCCOc1ccc(-c2oc3ccccc3c2C(=O)c2ccc3ccccc3c2)cc1)Cc1ccccc1 | Not Active
* CN(CCCCCCCOc1cccc(-c2cc3ccccc3o2)c1)Cc1ccccc1 | Not Active

* * *

# measurement target: Cholinesterase (Homo sapiens)
# Sequence (P06276 whole entry): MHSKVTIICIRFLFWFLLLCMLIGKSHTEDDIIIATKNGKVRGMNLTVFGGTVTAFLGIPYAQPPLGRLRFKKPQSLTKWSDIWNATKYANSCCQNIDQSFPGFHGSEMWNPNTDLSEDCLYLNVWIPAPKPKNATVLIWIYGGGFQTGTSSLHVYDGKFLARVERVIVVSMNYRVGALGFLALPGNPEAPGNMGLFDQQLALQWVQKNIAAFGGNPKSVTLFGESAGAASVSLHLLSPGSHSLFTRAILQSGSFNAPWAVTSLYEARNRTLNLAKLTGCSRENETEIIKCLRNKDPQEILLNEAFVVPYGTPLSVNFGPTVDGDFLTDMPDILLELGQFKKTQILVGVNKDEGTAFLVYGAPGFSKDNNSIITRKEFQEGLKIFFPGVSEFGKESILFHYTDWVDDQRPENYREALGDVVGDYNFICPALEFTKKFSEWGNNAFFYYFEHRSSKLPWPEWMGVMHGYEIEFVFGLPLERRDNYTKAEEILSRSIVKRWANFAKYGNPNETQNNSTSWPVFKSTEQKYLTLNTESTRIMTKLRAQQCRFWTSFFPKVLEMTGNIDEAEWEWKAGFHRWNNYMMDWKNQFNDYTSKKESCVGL
# measurement description: Inhibition of human serum BuChE using butyrylthiocholine iodide as substrate preincubated for 20 mins prior to substrate addition by Ellman's method
pIC50: −log10 of the molar value.
measured endpoint: pIC50

• CN(CCCCCOc1ccc(-c2cc3ccccc3o2)cc1)Cc1ccccc1 = 5.18
• CN(CCCOc1ccc(-c2cc3ccccc3o2)cc1)Cc1ccccc1 = 3.87
• CN(CCCCCCCOc1ccc(-c2oc3ccccc3c2C(=O)c2c3ccccc3cc3ccccc23)cc1)Cc1ccccc1 = 4.09
• CN(CCCCCCCOc1ccc(-c2oc3ccccc3c2C(=O)c2ccc(-c3ccccc3)cc2)cc1)Cc1ccccc1 = 4.05
• CN(CCCCCCCOc1ccc(-c2oc3ccccc3c2C(=O)c2ccc3ccccc3c2)cc1)Cc1ccccc1 = 4.05
